# Assay Protocol: WST-1-based cytotoxicity assay
# Condition Info: human, human foreskin fibroblast (HFF) cells
Measured Parameter: IC50 at 48 h

Fill blank: measured IC50 at 48 h of the compound "O=C(Nc1nc(-c2ccccn2)cs1)c1cncn1-c1ccccc1" is ____. > 100 µM

====

Please respond with reported IC50 for every item in the list.
# Test System: rEhAPSK (Entamoeba histolytica, UniProt C4LUW9)
# Sequence (C4LUW9 entry or part of it): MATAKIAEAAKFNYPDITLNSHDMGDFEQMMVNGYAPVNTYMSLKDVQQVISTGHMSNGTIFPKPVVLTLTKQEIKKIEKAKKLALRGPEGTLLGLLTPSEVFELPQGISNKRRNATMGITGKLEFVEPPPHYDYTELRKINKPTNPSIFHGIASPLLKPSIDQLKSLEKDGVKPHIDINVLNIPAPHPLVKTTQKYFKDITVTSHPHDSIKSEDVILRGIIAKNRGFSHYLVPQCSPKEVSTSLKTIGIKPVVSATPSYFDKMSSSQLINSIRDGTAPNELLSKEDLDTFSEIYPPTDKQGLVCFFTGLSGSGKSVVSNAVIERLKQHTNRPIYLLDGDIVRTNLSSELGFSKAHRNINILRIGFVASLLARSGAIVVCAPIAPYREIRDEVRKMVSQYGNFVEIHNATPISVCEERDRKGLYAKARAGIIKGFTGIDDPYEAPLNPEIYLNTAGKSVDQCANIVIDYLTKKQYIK
# Assay Protocol: 96-well plate-based in vitro APSK activity assay (coupling assay, NADH decrease)
# Type: biochemical
# Condition Info: rEhAPSK; average ± SD, more than three independent experiments; read-out: APSK activity IC50
Give bare numbers, in µM.

Required: IC50, one value per compound below.
1. Cn1c(=O)c2c(S(C)(=O)=O)snc2n(C)c1=O
2. COc1ccc(Cl)cc1NC(=O)CN(C)C(=O)c1cnn(-c2ccccc2)n1

1. 8.67
2. 6.57

====

# Assay Protocol: WST-1-based cytotoxicity assay
# Condition Info: human
Measured Parameter: IC50 at 48 h

// returns reported IC50 at 48 h for input "O=C(COc1cccc(F)c1)Nc1nc(-c2ccccn2)cs1" > 100 µM

====

# Test System: rEhAPSK (Entamoeba histolytica)
# Assay Protocol: 96-well plate-based in vitro APSK activity assay (coupling assay, NADH decrease)
# Format: biochemical
# Condition Info: rEhAPSK; average ± SD, more than three independent experiments; read-out: APSK activity IC50
Measured Parameter: pIC50
Numbers only, as −log10 of the molar value.

O=C(Nc1nc(-c2ccccn2)cs1)c1cncn1-c1ccccc1 = 5.17

Please state, for each entry, its recorded pIC50.
1. Cc1cc(C)cc(COc2ccc3c(C)c(CCC(=O)O)c(=O)oc3c2C)c1
2. Cc1ccc(C(=O)Nc2ccc(S(=O)(=O)O)c3cc(S(=O)(=O)O)cc(S(=O)(=O)O)c23)cc1NC(=O)c1cccc(NC(=O)Nc2cccc(C(=O)Nc3cc(C(=O)Nc4ccc(S(=O)(=O)O)c5cc(S(=O)(=O)O)cc(S(=O)(=O)O)c45)ccc3C)c2)c1 [B-D-03, suramin, reference compound]
3. N=C(N)Nc1ccc(-c2ccc(-c3ccc(NC(=N)N)c(Cl)c3)o2)cc1Cl
4. N=C(N)Nc1ccc(-c2ccc(-c3ccc(NC(=N)N)cc3Cl)o2)c(Cl)c1

1: 5.12; 2: 6.28; 3: 6.33; 4: 5.69

====

# Test System: UniProt C4LUW9
# Assay Protocol: 96-well plate-based in vitro APSK activity assay (coupling assay, NADH decrease)
# Type: biochemical
# Condition Info: read-out: APSK activity IC50; rEhAPSK; average ± SD, more than three independent experiments
Give measured IC50 for each item. Keep answers brief.

O=C(COc1cccc(F)c1)Nc1nc(-c2ccccn2)cs1 [A-D-11] = < 10 µM
COc1ccc(C2=NN(C3CCCCCC3)C(=O)C2(C)C)cc1OCCCCOc1ccc(-c2nnn[nH]2)cc1 [A-C-05] = < 10 µM

Here's the next entry for you.
Bench note: what IC50 did Cc1cc(C2=NOC(c3cc(Cl)c(F)c(Cl)c3)(C(F)(F)F)C2)ccc1C(=O)NCc1ccc2c(c1)C(C)(C)OB2O (stereo not drawn) [B-B-05] show? < 10 µM

====

# Test System: UniProt:C4LUW9
# Assay Protocol: 96-well plate-based in vitro APSK activity assay (coupling assay, NADH decrease)
# Format: biochemical
Measured Parameter: pIC50
Give bare numbers, as −log10 of the molar value.

COc1ccc(C2=NN(C3CCCCCC3)C(=O)C2(C)C)cc1OCCCCOc1ccc(-c2nnn[nH]2)cc1 = 5.33
O=C(COc1cccc(F)c1)Nc1nc(-c2ccccn2)cs1 = 5.20

What does the record list as pIC50 for Cc1cc(C2=NOC(c3cc(Cl)c(F)c(Cl)c3)(C(F)(F)F)C2)ccc1C(=O)NCc1ccc2c(c1)C(C)(C)OB2O (stereo not drawn) ? 5.24
